Ref: paper PMC7827481

target: N-terminal acetyltransferase D (NatD) (Homo sapiens, UniProt Q86UY6); construct: gene NAA40; full-length human NatD, untagged; experiment: ThioGlo4 fluorescence acetyltransferase assay; assay type: biochemical
QUANTITY NAME: pIC50
pIC50 here is simply -log10 of the concentration when that concentration is written in mol/L.

QUERY: Query: pIC50; subject: C[C@H](NC(=O)/C(C#N)=C/c1ccc(O)c(O)c1)c1ccccc1
RESULT: 4.42

###

biological target: N-terminal acetyltransferase D (NatD) (Homo sapiens); construct: gene NAA40; full-length human NatD, untagged; experiment: ThioGlo4 fluorescence acetyltransferase assay; confirmed by MALDI-MS ([…] at […]); type: biochemical
QUANTITY NAME: pIC50
pIC50 here is simply -log10 of the concentration when that concentration is written in mol/L.

QUERY: Request - read-out pIC50 | tested on N-terminal acetyltransferase D (NatD) (Homo sapiens) | compound C[C@@H](NC(=O)/C(C#N)=C/c1ccc(O)c(O)c1)c1ccccc1 [P1404L15, tyrphostin B44(-)]
RESULT: 4.20
